assay: endotoxin induced lethality in mice (survival); assay type: in vivo, mouse; details: mouse, in vivo, ip; CT1501R alone, no LPS, ten mice, same schedule
Reported Metric: survival

survival recorded for this compound, C[C@@H](O)CCCCn1c(=O)c2c(ncn2C)n(C)c1=O [CT1501R] , is 100%

Source: patent US5567704A
